# TESTED_TARGET: Gal-4 hPPARα (Homo sapiens, UniProt Q07869)
# Construct: Plasmids pGal4-hPPARα, pGal4-hPPARγ, pGal4-hPPARδ and pG5-TK-pGL3 were constructed as previously described by Staels, Bart, et al., Nature 1998 Jun; 25
# Sequence (Q07869 200-468 limits assumed): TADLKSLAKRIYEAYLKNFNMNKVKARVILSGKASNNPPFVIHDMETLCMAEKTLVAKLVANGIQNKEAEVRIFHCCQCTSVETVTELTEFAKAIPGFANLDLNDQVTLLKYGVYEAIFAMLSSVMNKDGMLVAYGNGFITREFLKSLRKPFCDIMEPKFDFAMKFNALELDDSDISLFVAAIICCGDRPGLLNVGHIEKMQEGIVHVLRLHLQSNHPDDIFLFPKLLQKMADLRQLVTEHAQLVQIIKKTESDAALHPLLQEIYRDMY
# ASSAY_DETAILS: Gal4-hPPARα transient transfection reporter assay in Cos cells
# PARTICULARS: luciferase reporter, 24 hours with compound, scale 1-5, read-out: Gal-4 hPPAR α EC50 (scaled number)
// values below are reported EC50

> print(dat)
                                        mol  experimental.readout  endpoint.value
1  CCCn1c(COC(=O)c2ccc(SC(C)(C)C(=O)O)cc2)nn(Cc2ccc(F)cc2)c1=O                  EC50    51 to 200 nM

# input Could you share which EC50 value was measured for COc1ccc(Cn2cc(COC(=O)c3ccc(SC(C)(C)C(=O)O)cc3)nn2)cc1 ?
# output 51 to 200 nM

# input Could you share which EC50 value was measured for C[C@@H](OC(=O)c1ccc(SC(C)(C)C(=O)O)cc1)c1cn(Cc2cc(C(F)(F)F)cc(C(F)(F)F)c2)nn1 ?
# output 1 to 50 nM

# input Could you share which EC50 value was measured for CCCn1c([C@@H](C)OC(=O)c2ccc(SC(C)(C)C(=O)O)cc2)nn(Cc2ccc(C)cc2)c1=O ?
# output 1 to 50 nM

Numbers sourced from patent US20100184815A1.
